The entries below are paired with their reported IC50.
target entity: EGFR exon 20 FQEA Ins A763_V764 (Ba/F3 cells) (Homo sapiens, UniProt P00533, INS763FQEA)
Sequence (P00533 with tags, fused parts or gaps INS763FQEA): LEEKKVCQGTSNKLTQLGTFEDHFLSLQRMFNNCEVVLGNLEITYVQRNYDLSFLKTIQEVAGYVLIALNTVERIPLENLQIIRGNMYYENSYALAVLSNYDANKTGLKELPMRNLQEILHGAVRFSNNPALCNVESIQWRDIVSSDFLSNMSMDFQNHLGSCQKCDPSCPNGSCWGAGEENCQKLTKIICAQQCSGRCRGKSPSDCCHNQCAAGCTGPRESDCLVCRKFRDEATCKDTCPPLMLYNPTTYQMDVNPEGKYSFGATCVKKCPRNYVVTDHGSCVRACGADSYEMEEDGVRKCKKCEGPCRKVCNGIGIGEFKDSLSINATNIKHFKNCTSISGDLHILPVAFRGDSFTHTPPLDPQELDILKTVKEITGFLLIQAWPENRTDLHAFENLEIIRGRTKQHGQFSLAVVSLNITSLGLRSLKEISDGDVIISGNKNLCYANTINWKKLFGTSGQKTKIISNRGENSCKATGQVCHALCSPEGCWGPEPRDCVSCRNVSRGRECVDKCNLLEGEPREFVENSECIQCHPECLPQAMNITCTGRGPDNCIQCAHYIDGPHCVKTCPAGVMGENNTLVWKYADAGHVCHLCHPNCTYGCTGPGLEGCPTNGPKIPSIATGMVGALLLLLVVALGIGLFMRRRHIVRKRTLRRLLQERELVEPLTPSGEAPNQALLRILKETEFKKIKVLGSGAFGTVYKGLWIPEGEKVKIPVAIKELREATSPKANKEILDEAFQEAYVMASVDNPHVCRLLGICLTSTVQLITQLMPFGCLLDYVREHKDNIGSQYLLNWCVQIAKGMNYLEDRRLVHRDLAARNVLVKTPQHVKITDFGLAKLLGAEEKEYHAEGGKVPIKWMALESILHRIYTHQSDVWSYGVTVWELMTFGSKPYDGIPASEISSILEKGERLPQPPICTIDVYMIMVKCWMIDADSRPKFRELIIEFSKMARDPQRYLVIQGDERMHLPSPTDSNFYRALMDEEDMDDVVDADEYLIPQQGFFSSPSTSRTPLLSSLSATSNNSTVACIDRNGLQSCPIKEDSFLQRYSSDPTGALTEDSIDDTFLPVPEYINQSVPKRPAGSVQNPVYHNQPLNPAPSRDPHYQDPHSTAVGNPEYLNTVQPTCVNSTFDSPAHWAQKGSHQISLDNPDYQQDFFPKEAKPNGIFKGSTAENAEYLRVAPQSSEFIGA
measurement notes: Inhibitor activity on EGFR-dependent cell growth (CellTiter-Glo, 72 h), Ba/F3 EGFR exon 20 FQEA Ins
particulars: read-out: BaF3 FQEA IC50

>  <compound>
COc1c(Cl)cccc1Nc1c(-c2ccncc2F)[nH]c2c1C(=O)NC[C@@]21CCN(C(C)=O)C1 [compound 492]

>  <IC50>
> 1000 nM

$$$$
>  <compound>
COc1c(F)cccc1Nc1c(-c2ccncc2)[nH]c2c1C(=O)NCC2 [compound 243]

>  <IC50>
100 to 1000 nM

$$$$
>  <compound>
COc1c(Cl)cccc1Nc1c(-c2ccncc2F)[nH]c2c1C(=O)NC[C@H]2CCF [compound 812]

>  <IC50>
100 to 1000 nM

$$$$
>  <compound>
COc1ccc2nccc(-c3[nH]c4c(c3Nc3cccc(Cl)c3OC)C(=O)NCC4)c2n1 [Compound 149]

>  <IC50>
< 100 nM

$$$$
>  <compound>
COc1c(Cl)cccc1Nc1c(-c2ccnc(Nc3ccn(C)n3)n2)[nH]c2c1C(=O)NCC2 [compound 509]

>  <IC50>
< 100 nM

$$$$
>  <compound>
COc1c(Cl)cccc1Nc1c(-c2ccncc2F)[nH]c2c1C(=O)NC[C@@H]2CC(C)(C)O [Compound 496]

>  <IC50>
100 to 1000 nM

$$$$
>  <compound>
COc1c(Cl)cccc1Nc1c(-c2ccnc3[nH]c(=O)c(OC)nc23)[nH]c2c1C(=O)NCC2 [compound 729]

>  <IC50>
100 to 1000 nM

$$$$
>  <compound>
COc1c(Cl)cccc1Nc1c(-c2ccnc(N)n2)[nH]c2c1C(=O)NC[C@@H]2C[C@H]1COCCO1 [Compound 531]

>  <IC50>
< 100 nM

$$$$
>  <compound>
CNc1nccc(-c2[nH]c3c(c2Nc2cccc(F)c2OC)C(=O)NCC3)n1 [Compound 691]

>  <IC50>
100 to 1000 nM

$$$$
>  <compound>
COc1c(Nc2c(-c3ccnc(N)n3)[nH]c3c2C(=O)NCC3)cccc1C(F)(F)F [Compound 698]

>  <IC50>
100 to 1000 nM

$$$$
>  <compound>
COc1c(F)cccc1Nc1c(-c2ccncc2F)[nH]c2c1C(=O)NC[C@@H]2C[C@H]1CCO1 [Compound 422c]

>  <IC50>
100 to 1000 nM

$$$$
>  <compound>
COc1c(Cl)cccc1Nc1c(-c2ccnc3ccc(OC4CC4)nc23)[nH]c2c1C(=O)NCC21CC1 [compound 323]

>  <IC50>
< 100 nM

$$$$
>  <compound>
COc1c(F)cccc1Nc1c(-c2ccncc2F)[nH]c2c1C(=O)NC[C@@H]2C[C@@H]1CCO1 [Compound 422b]

>  <IC50>
100 to 1000 nM

$$$$
>  <compound>
COc1ncc2nccc(-c3[nH]c4c(c3Nc3cccc(Cl)c3OC)C(=O)N[C@@H](C(F)(F)F)C4)c2n1 [Compound 507]

>  <IC50>
< 100 nM

$$$$
>  <compound>
COc1c(Cl)cccc1Nc1c(-c2ccncc2F)[nH]c2c1C(=O)NC[C@@]21CCN(C)C1 [compound 816]

>  <IC50>
100 to 1000 nM

$$$$
>  <compound>
COc1c(Cl)cccc1Nc1c(-c2ccnc3cnc(OCCCN4CCOCC4)nc23)[nH]c2c1C(=O)NCC2 [compound 505]

>  <IC50>
100 to 1000 nM

$$$$
>  <compound>
CC[C@H]1CNC(=O)c2c1[nH]c(-c1ccnc(N)n1)c2Nc1cccc(Cl)c1OC [189b]

>  <IC50>
< 100 nM

$$$$
>  <compound>
COc1cccc(Nc2c(-c3ccnc(N)n3)[nH]c3c2C(=O)NCC3)c1Cl [compound 301]

>  <IC50>
> 1000 nM

$$$$
>  <compound>
COc1c(Cl)cccc1Nc1c(-c2ccnc(Nc3ccc(N4CCN(C)CC4)nc3)n2)[nH]c2c1C(=O)NCC2 [compound 518]

>  <IC50>
< 100 nM

$$$$
>  <compound>
COCC[C@H]1CNC(=O)c2c1[nH]c(-c1ccncc1F)c2Nc1cccc(Cl)c1OC [Compound 747]

>  <IC50>
< 100 nM

$$$$
>  <compound>
COc1c(Cl)cccc1Nc1c(-c2ccnc(NC(C)C)n2)[nH]c2c1C(=O)NCC2 [compound 225]

>  <IC50>
> 1000 nM

$$$$
>  <compound>
COc1c(F)cccc1Nc1c(-c2ccnc3ccc(OC4CC4)nc23)[nH]c2c1C(=O)NCC2 [Compound 696, trifluoroacetic acid]

>  <IC50>
< 100 nM

$$$$
>  <compound>
COc1cc2nccc(-c3[nH]c4c(c3Nc3cccc(F)c3OC)C(=O)NCC4)c2nc1OC [Compound 807]

>  <IC50>
< 100 nM

$$$$
>  <compound>
COc1c(F)cccc1Nc1c(-c2ccnc(C)n2)[nH]c2c1C(=O)NCC2C[C@H]1COCCO1 (single isomer, unassigned) [Compound 606]

>  <IC50>
< 100 nM

$$$$
>  <compound>
COc1c(Cl)cccc1Nc1c(-c2ccnc(C(F)F)n2)[nH]c2c1C(=O)NCC2 [compound 472]

>  <IC50>
> 1000 nM

$$$$
>  <compound>
COc1c(Cl)cccc1Nc1c(-c2ccncc2F)[nH]c2c1C(=O)NC[C@H]2CC(F)F [Compound 820]

>  <IC50>
100 to 1000 nM

$$$$
>  <compound>
COc1c(Cl)cccc1Nc1c(-c2ccnc(NC[C@@H]3CCO3)n2)[nH]c2c1C(=O)NCC2 [compound 719]

>  <IC50>
> 1000 nM

$$$$
>  <compound>
COc1c(Cl)cccc1Nc1c(-c2ccncc2F)[nH]c2c1C(=O)NC[C@@H]2C[C@@H]1COCCO1 [Compound 482]

>  <IC50>
< 100 nM

$$$$
>  <compound>
COc1ncc2nccc(-c3[nH]c4c(c3Nc3cccc(Cl)c3OC)C(=O)N[C@H](C(F)(F)F)C4)c2n1 [Compound 508]

>  <IC50>
100 to 1000 nM

$$$$
>  <compound>
COc1c(Cl)cccc1Nc1c(-c2ccnc(NC[C@@H]3CCCO3)n2)[nH]c2c1C(=O)NCC2 [compound 722]

>  <IC50>
> 1000 nM

$$$$
